// values below are reported pEC50
- Test system: X4-HIV-1 (NL4-3 strain)
- test name: Anti-HIV activity: protection against HIV-1 (NL4-3 strain)-induced cytopathogenicity in MT-4 cells, MTT assay
- Type: cell-based
- assay setup: 50% protection from HIV-1 (NL4-3 strain)-induced cytopathogenicity in MT-4 cells; 5 days; mean or mean ± SD
- Procedure: For virus preparation, 293T/17 cells (Invitrogen), which are maintained in Dulbecco’s modified Eagle medium (DMEM) containing 10% FBS, in a T-75 flask were transfected with 10 μg of the pNL4-3 construct by the calcium phosphate method. […] Inhibitory activities of test compounds against X4-HIV-1 (NL4-3 strain)-induced cytopathogenicity in MT-4 cells, which are maintained in RPMI-1640 containing 10% FBS, were assessed by the MTT assay. […]
# log scale: pEC50 equals minus log10 of the concentration in mol/L

compound	pEC50
Cc1cn([C@H]2C[C@H](N=[N+]=[N-])[C@@H](CO)O2)c(=O)[nH]c1=O [AZT, reference compound]	7.62

Continue with the compound presented below.
Req: Supply recorded pEC50 for CSCC[C@H](C)OC(=O)[C@@H](N)c1ccccc1-c1c[nH]c2ccccc12 here.
Resp: 5.35

---

- test name: Cytotoxicity: reduction of the viability of MT-4 cells, MTT assay
- Type: cell-based
- assay setup: human, MT-4 cells, 50% reduction of the viability of MT-4 cells
Each record is given Criterion met if its reported CC50 at 5 days is strictly below 30 µM. Records at or above 30 µM are given Criterion not met.

Some solved entries appear below for comparison.
molecule	category label
CC(C)SCC[C@H](C)OC(=O)[C@@H](N)c1ccccc1-c1c[nH]c2ccccc12	Criterion met
c1cc(CN2CCCNCCNCCCNCC2)ccc1CN1CCCNCCNCCCNCC1 [AMD3100, reference compound]	Criterion not met
CSCC[C@H](C)OC(=O)[C@@H](N)c1ccccc1-c1coc2ccccc12	Criterion not met

Req: Does the reported CC50 at 5 days of C[C@@H](CCSC(C)(C)C)OC(=O)[C@@H](N)c1ccccc1-c1c[nH]c2ccccc12 stay below 30 µM?
Resp: Criterion met

Req: Does the reported CC50 at 5 days of COCC[C@H](C)OC(=O)[C@@H](N)c1ccccc1-c1c[nH]c2ccccc12 stay below 30 µM?
Resp: Criterion not met

Req: Does the reported CC50 at 5 days of CSCC[C@@H](C)OC(=O)[C@@H](N)c1ccccc1-c1c[nH]c2ccccc12 stay below 30 µM?
Resp: Criterion not met

Req: Does the reported CC50 at 5 days of CSCC[C@H](C)OC(=O)[C@@H](N)c1ccccc1-c1c[nH]c2ccccc12 stay below 30 µM?
Resp: Criterion not met

Req: Does the reported CC50 at 5 days of C[C@@H](CCSc1ccccc1)OC(=O)[C@@H](N)c1ccccc1-c1c[nH]c2ccccc12 stay below 30 µM?
Resp: Criterion met

Req: Does the reported CC50 at 5 days of CSCC[C@H](C)OC(=O)[C@@H](N)c1ccccc1-c1cccc2ccccc12 stay below 30 µM?
Resp: Criterion not met

Req: Does the reported CC50 at 5 days of CSCC[C@H](C)OC(=O)[C@@H](N)c1ccccc1-c1csc2ccccc12 stay below 30 µM?
Resp: Criterion not met

Req: Does the reported CC50 at 5 days of C[C@@H](CCS(C)(=O)=O)OC(=O)[C@@H](N)c1ccccc1-c1c[nH]c2ccccc12 stay below 30 µM?
Resp: Criterion not met
